system: OVCAR-3 ovarian; assay: NCI-60 one-dose screen, 48 h (100 = growth as untreated, 0 = no growth, -100 = all killed); settings: 10 µM unless noted
Compounds without any hit were thinned out: in the full panel of roughly 83,000, 20% have a hit. Calls of active or inactive are those of the source. The calls were made as follows: active = growth percent below 10; inactive = the rest.
Exercise: state measured growth for each of the compounds provided.

OVCAR-3 ovarian growth of `COc1ccc(-c2c(N)n[nH]c2-c2ccc(Cl)cc2O)cc1OC` is 95.6% (inactive)

OVCAR-3 ovarian growth of `CCN(CC)c1ccc(C(=O)c2ccc(N(CC)CC)cc2)cc1` is -20.3% (active)

OVCAR-3 ovarian growth of `CC/C=C\C[C@H](O)C/C=C1/C(=O)C=C[C@@H]1C/C=C\CCCC(=O)OC` is -6.12% (active)

OVCAR-3 ovarian growth of Cc1ccc(NS(=O)(=O)c2ccc3c(c2)C2OCCC2C(c2ccc(C(=O)C(C)C)cc2)N3)cc1C (stereo not given) is 59.6% (inactive)

OVCAR-3 ovarian growth of CC1(C)CC(=O)C2=C(C1)N(c1ccc(OC(F)(F)F)cc1)C(N)=C(C#N)C2c1ccc(Cl)cc1 (stereo not given) is 94.5% (inactive)
